tested system: T1, PD-L1-HIS recombinant protein (human, UniProt Q9NZQ7 19-238, limits assumed)
T1 construct: not shown: His tag
T1 sequence (Q9NZQ7 19-238 limits assumed): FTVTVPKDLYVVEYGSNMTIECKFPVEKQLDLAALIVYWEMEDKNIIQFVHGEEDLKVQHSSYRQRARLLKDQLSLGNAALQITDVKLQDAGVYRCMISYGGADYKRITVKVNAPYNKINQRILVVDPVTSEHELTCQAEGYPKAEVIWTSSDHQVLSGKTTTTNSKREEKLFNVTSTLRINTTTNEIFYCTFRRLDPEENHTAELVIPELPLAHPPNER
protocol summary: SPR (Biacore 8K), antibody captured on chip, PD-L1-HIS analyte 2.5-80 nM, 1:1 binding model
measured attribute: pKd
On this scale, pKd is minus log10 of a concentration expressed in M (mol/L).

pKd recorded for this binder, Chimeric antibody (antibody, V domains shown, also called mPD-L1Ab-Chim) VH: DVQLQESGPDLVKPSQSLSLTCTVTGYSITSGYTWHWIRQFPGNKLEWMGYIHYSGSTKYNPSLKSRFSITRDTSKNQFFLQLNSMTAEDTATYYCARNSLFASWGHGTLVTVSA VL: DIVLTQSPASLAVSLGQRATISCRASESVDTYGDSFMHWFQQKPGQPPKLLIYRASNLESGIPARFSGSGSRTDFTLTINPVEADDVATYYCQQSNEAPYTFGGGTKLEIK , is 8.90

pKd recorded for this binder, AH02030 (antibody, human IgG1, V domains shown, also called mPD-L1Ab-5BM clone AH02030) VH: QVQLQESGPGLVKPSQTLSLTCTVTGYSITSGYTWHWIRQHPGKGLEWIGYIHYSGSTKYNPSLKSRFTITRDTSKNQFSLKLSSVTAADTAVYYCARNSLFASWGQGTLVTVSS VL: DIVLTQSPDSLAVSLGERATINCRASESVDTYGDSFMHWYQQKPGQPPKLLIYRASNLESGVPDRFSGSGSRTDFTLTISSLQAEDVAVYYCQQSNEAPYTFGGGTKLEIK , is 8.93
